Values were extracted from patent US20260062388A1.

TEST_METHOD_NOTES: Stability tests on crystal forms of acid addition salts: high-temperature test and accelerated test, 4 weeks
Assay type: physicochemical
STUDY_CONDITIONS: 60±2° C.
MEASURE: stability under high temperature conditions

MOLECULE	RESULT
NCc1c[nH]c(=S)n1[C@H]1CCc2c(F)cc(F)cc2C1.O=S(=O)(O)O [crystal form III of sulfate salt (1:1), bisulfate salt of nepicastat]	the impurities increased
NCc1c[nH]c(=S)n1C1CCc2c(F)cc(F)cc2C1.O=C(O)CC(O)(CC(=O)O)C(=O)O (stereo not drawn) [crystal form I of citrate salt, citrate salt of nepicastat]	the impurities increased
NCc1c[nH]c(=S)n1[C@H]1CCc2c(F)cc(F)cc2C1.O=C(O)/C=C/C(=O)O [crystal form I of fumarate salt, fumarate salt of nepicastat]	the impurities increased
